# MEASURED TARGET: TAR RNA
# ASSAY OVERVIEW: In vitro binding of resin-bound compounds to TAR RNA (OD260 of unbound RNA)
# Set-up: species or system HIV
# MEASUREMENT PARAMETERS: in vitro assay; compounds of formula I on TentaGel beads incubated with TAR RNA overnight at 4° C. in TK buffer; read-out: Kd (nM), binding constants
Field: log10 of Kd. Provide a value for each of the compounds that follow.
The common logarithm of Kd in nM is what is listed.

Here is how some compounds turned out for log10 of Kd.
>  <COMPOUND STRUCTURE STRING>
NCCCC[C@@H](COC(N)=O)NC(=O)OC[C@H](CCCCN)NC(=O)[C@H](N)CCCCN

>  <MEASURED TARGET>
TAR RNA

>  <log10 of Kd>
2.69

$$$$
>  <COMPOUND STRUCTURE STRING>
NCCCC[C@H](N)COC(=O)N[C@H](CCCCN)COC(=O)N[C@@H](CCCCN)COC(N)=O

>  <MEASURED TARGET>
TAR RNA

>  <log10 of Kd>
2.66

$$$$
>  <COMPOUND STRUCTURE STRING>
NCCCCCNCC(=O)N[C@@H](CCCCN)C(=O)N[C@H](CCCCN)COC(N)=O

>  <MEASURED TARGET>
TAR RNA

>  <log10 of Kd>
2.31

$$$$

Could you tell me log10 of Kd for each of these compounds? They are listed below.
1. NCCCCCN(CC(=O)N[C@@H](CCCCN)COC(N)=O)C(=O)CNCCCCN
2. NCCCCCCCNCC(=O)N(CCCCCCCN)CC(=O)N[C@H](CCCCN)COC(N)=O
3. NCCCCCCCN(CC(=O)N[C@@H](CCCCN)COC(N)=O)C(=O)CNCCCCN
4. NCCCC[C@H](N)COC(=O)N[C@H](CCCCN)COC(=O)N[C@H](CCCCN)COC(N)=O

Response:
[3.89, 3.34, 3.79, 2.81]

Query: Please give the documented log10 of Kd of NCCCCCCCNCC(=O)N[C@@H](CCCCN)COC(=O)N[C@H](CCCCN)COC(N)=O
Response: 2.08

----------
# MEASURED TARGET: TAR RNA
# ASSAY OVERVIEW: In vitro binding of resin-bound compounds to TAR RNA (OD260 of unbound RNA)
# Parameters: species or system HIV
# MEASUREMENT PARAMETERS: in vitro assay; compounds of formula I on TentaGel beads incubated with TAR RNA overnight at 4° C. in TK buffer; read-out: Kd (nM), binding constants
Assign Kd to each entry below.
One number for each entry, in nM.

Batch lookup, Kd per entry.
1. NCCCCCCCN(CC(=O)N[C@@H](CCCCN)COC(N)=O)C(=O)CNCCCCCN
2. NCCCCCCCNCC(=O)N[C@H](CCCCN)COC(=O)N[C@@H](CCCCN)COC(N)=O

Response:
[1040, 567]

Please state Kd for every compound in the list that follows.
1. NCCCC[C@H](COC(N)=O)NC(=O)[C@H](CCCCN)NC(=O)[C@@H](N)CCCCN (stereo in doubt)
2. NCCCC[C@H](COC(N)=O)NC(=O)CN(CCCCN)C(=O)[C@@H](N)CCCCN
3. NCCCC[C@H](N)COC(=O)N(CCCCN)CC(=O)N[C@@H](CCCCN)COC(N)=O
4. NCCCCCCCNCC(=O)N(CCCCCCCN)CC(=O)N[C@@H](CCCCN)COC(N)=O
5. NCCCCNCC(=O)N(CCCCN)CC(=O)N[C@H](CCCCN)COC(N)=O
6. NCCCCCNCC(=O)N[C@@H](CCCCN)COC(=O)N[C@@H](CCCCN)COC(N)=O

Response:
[403, 147, 491, 774, 403, 235]

----------
# MEASURED TARGET: TAR RNA
# ASSAY OVERVIEW: In vitro binding of resin-bound compounds to TAR RNA (OD260 of unbound RNA)
# Design: species or system HIV
# MEASUREMENT PARAMETERS: in vitro assay; compounds of formula I on TentaGel beads incubated with TAR RNA overnight at 4° C. in TK buffer; read-out: Kd (nM), binding constants
METRIC NAME: log10 Kd (log10 of the value in nM)
# log10 transformed; quantity=Kd; unit=nM

// worked examples, log10 Kd included
>  <COMPOUND>
NCCCC[C@H](COC(N)=O)NC(=O)CN(CCCCN)C(=O)OC[C@H](N)CCC(N)=O

>  <DATA VALUE>
2.66

$$$$
>  <COMPOUND>
NCCCCCNCC(=O)N[C@H](CCCCN)COC(=O)N[C@H](CCCCN)COC(N)=O

>  <DATA VALUE>
3.05

$$$$
>  <COMPOUND>
NCCCCCNCC(=O)N(CCCCCN)CC(=O)N[C@@H](CCCCN)COC(N)=O

>  <DATA VALUE>
4.50

$$$$
>  <COMPOUND>
NCCCC[C@H](COC(N)=O)NC(=O)OC[C@H](CCCCN)NC(=O)OC[C@H](N)CCC(N)=O

>  <DATA VALUE>
2.58

$$$$
>  <COMPOUND>
NCCCCCCCN(CC(=O)N[C@@H](CCCCN)COC(N)=O)C(=O)OC[C@H](N)CCCCN

>  <DATA VALUE>
2.83

$$$$
>  <COMPOUND>
NCCCC[C@@H](N)COC(=O)N[C@@H](CCCCN)C(=O)N[C@H](CCCCN)COC(N)=O

>  <DATA VALUE>
3.15

$$$$

Dear colleague, could you send me log10 Kd for each of the items below? Thanks.
1. NCCCCCN(CC(=O)N[C@H](CCCCN)COC(N)=O)C(=O)OC[C@H](N)CCCCN (stereo in doubt)
2. NCCCCCCCNCC(=O)N(CCCCCN)CC(=O)N[C@H](CCCCN)COC(N)=O
3. NCCCC[C@@H](N)COC(=O)N(CCCCN)CC(=O)N[C@H](CCCCN)COC(N)=O

Response:
1: 2.26; 2: 2.63; 3: 2.22

Hey, quick one: what's log10 Kd for each of these?
1. NCCCCCCCN(CC(=O)N[C@H](CCCCN)COC(N)=O)C(=O)CNCCCCCN
2. NCCCC[C@@H](N)COC(=O)N(CCCCN)CC(=O)N[C@@H](CCCCN)COC(N)=O
3. NCCCC[C@H](COC(N)=O)NC(=O)OC[C@H](CCCCN)NC(=O)[C@H](N)CCCCN (stereo in doubt)
4. N=C(N)NCCC[C@H](N)COC(=O)N(CCCCN)CC(=O)N[C@@H](CCCCN)COC(N)=O
5. N=C(N)NCCC[C@H](N)COC(=O)N(CCCCCN)CC(=O)N[C@@H](CCCCN)COC(N)=O

Response:
1: 2.26; 2: 2.17; 3: 2.26; 4: 2.26; 5: 2.37

Count: 5. Required value per item: log10 Kd.
1. NCCCCCCCN(CC(=O)N[C@H](CCCCN)COC(N)=O)C(=O)[C@@H](N)CCCCN
2. NCCCCCNCC(=O)N[C@@H](CCCCN)COC(=O)N[C@H](CCCCN)COC(N)=O
3. NCCCCCN(CC(=O)N[C@@H](CCCCN)COC(N)=O)C(=O)OC[C@H](N)CCC(N)=O
4. NCCCC[C@H](N)COC(=O)N(CCCCN)CC(=O)N[C@H](CCCCN)COC(N)=O (stereo in doubt)
5. N=C(N)NCCC[C@H](N)COC(=O)N(CCCCCCCN)CC(=O)N[C@H](CCCCN)COC(N)=O

Response:
1. 2.61
2. 2.26
3. 2.78
4. 2.17
5. 3.75

Could you tell me log10 Kd for each of these compounds? They are listed below.
1. NCCCCCCCNCC(=O)N(CCCCN)CC(=O)N[C@@H](CCCCN)COC(N)=O
2. NCCCCNCC(=O)N[C@@H](CCCCN)COC(=O)N[C@@H](CCCCN)COC(N)=O
3. NCCCCCN(CC(=O)N[C@@H](CCCCN)COC(N)=O)C(=O)[C@H](N)CCCCN
4. NCCCC[C@@H](N)COC(=O)N[C@H](CCCCN)COC(=O)N[C@H](CCCCN)COC(N)=O
5. NCCCCCCCNCC(=O)N[C@@H](CCCCN)COC(=O)N[C@@H](CCCCN)COC(N)=O
6. NCCCC[C@H](COC(N)=O)NC(=O)OC[C@H](CCCCN)NC(=O)[C@@H](N)CCCCN
7. NCCCC[C@@H](N)COC(=O)N[C@H](CCCCN)COC(=O)N[C@@H](CCCCN)COC(N)=O

Response:
1. 2.41
2. 2.83
3. 2.08
4. 2.72
5. 2.17
6. 3.43
7. 2.78

// batch mode: one log10 Kd value per listed entry
1. NCCCC[C@@H](COC(N)=O)NC(=O)OC[C@H](CCCCN)NC(=O)OC[C@H](N)CCC(N)=O
2. NCCCC[C@@H](COC(N)=O)NC(=O)CN(CCCCN)C(=O)OC[C@H](N)CCC(N)=O

Response:
1: 2.99; 2: 2.48

// input: 3 compounds below; output: log10 Kd for each
1. NCCCCCCCN(CC(=O)N[C@H](CCCCN)COC(N)=O)C(=O)CNCCCCN
2. NCCCCNCC(=O)N(CCCCN)CC(=O)N[C@@H](CCCCN)COC(N)=O
3. N=C(N)NCCC[C@H](N)COC(=O)N(CCCCCN)CC(=O)N[C@H](CCCCN)COC(N)=O

Response:
1. 2.37
2. 2.72
3. 2.31
